# Target Desc: ABL1(Y253F)-phosphorylated (Homo sapiens, UniProt P00519, Y253F)
# Construct: purchased Eurofins DiscoverX KINOMEscan (scanTK)
# Assay Info: KINOMEscan ScanTK
# Type: binding
# Condition Parameters: @1000nM
Quantity: difference in %Control from compound Ib at 1 µM (%)

The following compounds have reported results that may help.
The recorded difference in %Control from compound Ib at 1 µM for CCOC(=O)c1cnc(S(C)(=O)=O)nc1N1CCC[C@@H](n2nc(-c3ccc(Oc4ccccc4)cc3)c3c(N)ncnc32)C1 [Compound 8c] is 4

Lab book: difference in %Control from compound Ib at 1 µM of CNC(=O)c1cnc(S(C)(=O)=O)nc1N1CCCC(n2nc(-c3ccc(Oc4ccccc4)cc3)c3c(N)ncnc32)C1 (stereo not shown) [Compound 8d] noted as 3

(I) Cc1cnc(S(C)(=O)=O)nc1N1CCCC(n2nc(-c3ccc(Oc4ccccc4)cc3)c3c(N)ncnc32)C1 (stereo not shown) [Compound 8a]
(II) COC(=O)c1cnc(S(C)(=O)=O)nc1N1CCCC(n2nc(-c3ccc(Oc4ccccc4)cc3)c3c(N)ncnc32)C1 (stereo not shown) [Compound 8b]
// query Parameter metric = difference in %Control from compound Ib at 1 µM. Return the lower-valued option from I and II . # reply format: chosen label
// result II

All values here come from paper PMC11345841.
